target: full-length NS3/NS4A-2 (HCV NS3 protease) (Hepatitis C virus genotype 1a); construct: Recombinant E. coli or Baculovirus full-length NS3 was diluted to 3.33 μM with assay buffer; made in house; host or cells: E. coli or baculovirus (BV) expression system; test: NS3-NS4 protease assay / NS3 inhibition assay (RETS1 substrate, fluorescence kinetic read); type: biochemical; settings: recombinant E. coli or Baculovirus full-length NS3 with NS4A-2; read-out: NS3-NS4 IC50
Sequence (P27958 1027-1657): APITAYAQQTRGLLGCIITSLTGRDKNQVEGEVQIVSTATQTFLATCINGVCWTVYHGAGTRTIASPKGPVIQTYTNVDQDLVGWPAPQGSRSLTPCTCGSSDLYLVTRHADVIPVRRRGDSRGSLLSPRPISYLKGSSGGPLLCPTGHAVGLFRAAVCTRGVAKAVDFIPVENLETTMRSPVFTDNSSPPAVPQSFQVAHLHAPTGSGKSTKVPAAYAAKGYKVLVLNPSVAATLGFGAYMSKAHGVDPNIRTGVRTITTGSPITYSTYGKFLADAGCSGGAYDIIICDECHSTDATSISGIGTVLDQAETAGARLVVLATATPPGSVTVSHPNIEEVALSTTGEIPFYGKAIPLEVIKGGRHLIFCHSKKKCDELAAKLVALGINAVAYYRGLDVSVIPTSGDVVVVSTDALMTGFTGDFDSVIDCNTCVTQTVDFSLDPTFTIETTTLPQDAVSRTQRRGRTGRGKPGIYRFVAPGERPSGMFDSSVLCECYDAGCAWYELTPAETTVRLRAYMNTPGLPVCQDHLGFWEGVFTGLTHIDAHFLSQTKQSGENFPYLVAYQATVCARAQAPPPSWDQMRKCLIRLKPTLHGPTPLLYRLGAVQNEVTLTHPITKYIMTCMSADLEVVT

MOLECULE | IC50
N[C@H]1CCCCC/C=C\[C@@H]2C[C@@]2(C(=O)NS(=O)(=O)C2CC2)NC(=O)[C@@H]2C[C@@H](OC(=O)N3Cc4cccc(F)c4C3)CN2C1=O [Compound 107] | < 0.1 µM
CCOc1ccc2sc(S(=O)(=O)NC(=O)[C@@]34C[C@H]3/C=C\CCCCC[C@H](NC(=O)OC(C)(C)C)C(=O)N3CCC[C@H]3C(=O)N4)nc2c1 [Compound 306] | > 10 µM
O=C1N[C@]2(C(=O)NS(=O)(=O)C3CC3)C[C@H]2/C=C\CCCCC[C@H](Nc2nc(-c3ccccc3)cs2)C(=O)N2C[C@H](OC(=O)N3Cc4cccc(F)c4C3)C[C@@H]12 [Compound 927] | < 0.1 µM
N[C@H]1CCCCC/C=C\[C@@H]2C[C@@]2(C(=O)NCC2CC2)NC(=O)[C@@H]2C[C@@H](OC(=O)N3Cc4cccc(F)c4C3)CN2C1=O [Compound 622] | < 10 µM
CC(C)(C)OC(=O)NC1CCCCCCCC=CC2CC2(C(=O)NS(=O)(=O)c2cc(Cl)cc(Cl)c2)NC(=O)C2CCCN2C1=O (centres unmarked) [Compound 2108] | < 10 µM

###

target: full-length NS3/NS4A-2 (HCV NS3 protease) (Hepatitis C virus genotype 1a); construct: Recombinant E. coli or Baculovirus full-length NS3 was diluted to 3.33 μM with assay buffer; made in house; host or cells: E. coli or baculovirus (BV) expression system; assay: NS3-NS4 protease assay / NS3 inhibition assay (RETS1 substrate, fluorescence kinetic read); assay type: biochemical; conditions: Table 22; read-out: NS3-NS4 IC50

COMPOUND | IC50
COC(=O)c1cccc(CNC(=O)[C@@]23C[C@H]2/C=C\CCCCC[C@H](NC(=O)OC(C)(C)C)C(=O)N2CCC[C@H]2C(=O)N3)c1 [Compound 2321] | < 1000 nM
CCCNC(=O)[C@@]12C[C@H]1/C=C\CCCCC[C@H](NC(=O)OC(C)(C)C)C(=O)N1CCC[C@H]1C(=O)N2 [Compound 2319] | < 100 nM
CC(C)(C)OC(=O)N[C@H]1CCCCC/C=C\[C@@H]2C[C@@]2(C(=O)Nc2cccc(Cl)c2)NC(=O)[C@@H]2CCCN2C1=O [Compound 2317] | < 1000 nM
CC(C)(C)OC(=O)NC1CCCCCC=CC2CC2(C(=O)NCc2cccc(Cl)c2)NC(=O)C2CCCN2C1=O (stereo not drawn) [Compound 2309] | < 1000 nM
CC(C)(C)OC(=O)N[C@H]1CCCCC/C=C\[C@@H]2C[C@@]2(C(=O)NCC#N)NC(=O)[C@@H]2CCCN2C1=O [Compound 2322] | < 100 nM
CC(C)CNC(=O)[C@@]12C[C@H]1/C=C\CCCCC[C@H](NC(=O)OC(C)(C)C)C(=O)N1CCC[C@H]1C(=O)N2 [Compound 2314] | < 1000 nM
